Attribution: ChEMBL document CHEMBL3885881

Reported MEAN CORPUSCULAR HEMOGLOBIN CONCENTRATION values for a set of molecules
Species on record: Rattus norvegicus
Test: DrugMatrix - Regimen: Daily Repeat
Type: toxicity, organism-based, Sprague-Dawley
Design: regimen Daily Repeat, gender Male, age 6-8 weeks
Details: in vivo, po, 1500 mg/kg, 120 h, tissue Blood, route oral GAVAGE, dose level High, time 5 day, vehicle .5 % CMC
Give a bare numeral; the unit G/DL is implied.

C[C@@H](O)[C@H]1C(=O)N2C(C(=O)O)=C(S[C@@H]3CN[C@H](C(=O)N(C)C)C3)[C@H](C)[C@H]12	37.6
Nc1nc2c(c(=O)[nH]1)N(C=O)C(CNc1ccc(C(=O)N[C@@H](CCC(=O)O)C(=O)O)cc1)CN2 (stereo not given in full)	40.07
CCOC(=O)[C@H](CCc1ccccc1)N[C@@H](C)C(=O)N1CCC[C@H]1C(=O)O	40.93
O=c1cc(-c2ccccc2)oc2ccc3ccccc3c12	31.3

// switching to the query molecule
I have this molecule here, `CC(C)(Sc1cc(C(C)(C)C)c(O)c(C(C)(C)C)c1)Sc1cc(C(C)(C)C)c(O)c(C(C)(C)C)c1` , and I need its recorded MEAN CORPUSCULAR HEMOGLOBIN CONCENTRATION.
37.5

###

Species on record: Rattus norvegicus
Assay: DrugMatrix - Regimen: Daily Repeat
Format: toxicity, organism-based, Sprague-Dawley
Set-up: regimen Daily Repeat, gender Male, age 6-8 weeks
Details: in vivo, po, 0 mg/kg, 72 h, tissue Blood, route oral GAVAGE, dose level Control, time 3 day, vehicle 100 % SALINE
ENDPOINT_LABEL: ABSOLUTE SEGMENTED NEUTROPHIL (CELLS/uL)
Express it in CELLS/uL; write the number only.

// worked examples, ABSOLUTE SEGMENTED NEUTROPHIL included
CC(=O)OCC(CCn1cnc2cnc(N)nc21)COC(C)=O	847.67
Cc1cc(CC(=O)O)n(C)c1C(=O)c1ccc(Cl)cc1 [ZOMEPIRAC]	1284.17
CCCc1nn(C)c2c(=O)[nH]c(-c3cc(S(=O)(=O)N4CCN(C)CC4)ccc3OCC)nc12	847.67

Field: next compound
Item under review: `Oc1ccccc1O` . Reported ABSOLUTE SEGMENTED NEUTROPHIL?
1284.17

###

The reader will find reported ALKALINE PHOSPHATASE values listed item by item below.
Organism: Rattus norvegicus
Test: DrugMatrix - Regimen: Daily Repeat
Format: toxicity, organism-based, Sprague-Dawley
Design: regimen Daily Repeat, gender Male, age 6-8 weeks
Details: in vivo, po, 0 mg/kg, 72 h, tissue Plasma, route oral GAVAGE, dose level Control, time 3 day, vehicle 100 % WATER
Response body: numeric value in u/L, unit text excluded.

Consider the worked cases shown below.
CN1C2CCCC1CC(NC(=O)c1nn(C)c3ccccc13)C2 (configuration not stated)	368.33
CCOC(N)=O	340.17
O=C(O)c1cc(=O)c2c(OCC(O)COc3cccc4oc(C(=O)O)cc(=O)c34)cccc2o1	382.5
CC[C@H]1OC(=O)[C@H](C)[C@@H](O[C@H]2C[C@@](C)(OC)[C@@H](O)[C@H](C)O2)[C@H](C)[C@@H](O[C@@H]2O[C@H](C)C[C@H](N(C)C)[C@H]2O)[C@](C)(OC)C[C@@H](C)C(=O)[C@H](C)[C@@H](O)[C@]1(C)O	334.83
O=C(O)c1cccnc1	363.5

Entry `CCCCCCCCCCCCCCCC[n+]1ccccc1.[Br-]` : reported ALKALINE PHOSPHATASE = ?
416

Could you tell me which ALKALINE PHOSPHATASE is on file for `CCCc1nn(C)c2c(=O)[nH]c(-c3cc(S(=O)(=O)N4CCN(C)CC4)ccc3OCC)nc12` ?
383.83

###

Parameter: MEAN CORPUSCULAR HEMOGLOBIN CONCENTRATION. Scope: all listed entries.
Species: Rattus norvegicus
Assay: DrugMatrix - Regimen: Daily Repeat
Type: toxicity, organism-based, Sprague-Dawley
Set-up: regimen Daily Repeat, gender Male, age 6-8 weeks
Settings: in vivo, po, 0 mg/kg, 72 h, tissue Blood, route oral GAVAGE, dose level Control, time 3 day, […]
Respond numerically; units are G/DL and should not be typed.

OCCN1CCN(CCCN2c3ccccc3Sc3ccc(C(F)(F)F)cc32)CC1 [FLUPHENAZINE]	39.62
CC[C@H](C)C(=O)O[C@H]1C[C@H](O)C=C2C=C[C@H](C)[C@H](CC[C@@H](O)C[C@@H](O)CC(=O)O)[C@H]21 [PRAVASTATIN]	39.85
CCn1cc(C(=O)O)c(=O)c2cc(F)c(N3CCNCC3)nc21 [ENOXACIN]	39.78

What does the record list as MEAN CORPUSCULAR HEMOGLOBIN CONCENTRATION for CN(CCOc1ccc(CC2SC(=O)NC2=O)cc1)c1ccccn1 (stereo unspecified) [ROSIGLITAZONE] ?
39.85

Bench note: what MEAN CORPUSCULAR HEMOGLOBIN CONCENTRATION did CC(=O)Nc1nnc(S(N)(=O)=O)s1 [ACETAZOLAMIDE] show?
37.92

Value lookup for MEAN CORPUSCULAR HEMOGLOBIN CONCENTRATION; key = CC(C)Cc1ccc(CC(=O)O)cc1 [IBUFENAC]
36.98

Look up MEAN CORPUSCULAR HEMOGLOBIN CONCENTRATION: COc1ncnc(NS(=O)(=O)c2ccc(N)cc2)c1OC [SULFADOXINE]
37.92

I'd like to know its MEAN CORPUSCULAR HEMOGLOBIN CONCENTRATION. The compound in question is NC[C@@H]1O[C@H](O[C@H]2[C@@H](O)[C@H](O[C@@H]3[C@@H](O)[C@H](N)C[C@H](N)[C@H]3O[C@H]3O[C@H](CN)[C@@H](O)[C@H](O)[C@H]3N)O[C@@H]2CO)[C@H](N)[C@@H](O)[C@@H]1O [FRAMYCETIN]
39.4

Which measured MEAN CORPUSCULAR HEMOGLOBIN CONCENTRATION value corresponds to CC(CCc1ccc(O)cc1)NCCc1ccc(O)c(O)c1 (stereo unspecified) [DOBUTAMINE] ?
31.13

Item CC[C@H](C)C(=O)O[C@H]1C[C@@H](C)C=C2C=C[C@H](C)[C@H](CC[C@@H]3C[C@@H](O)CC(=O)O3)[C@H]21 [LOVASTATIN] has what recorded MEAN CORPUSCULAR HEMOGLOBIN CONCENTRATION?
39.07

Give its MEAN CORPUSCULAR HEMOGLOBIN CONCENTRATION value. Item: C#C[C@]1(O)CC[C@H]2[C@@H]3CCc4cc(O)ccc4[C@H]3CC[C@@]21C [ETHINYL ESTRADIOL]
39.78

###

Species: Rattus norvegicus
Test: DrugMatrix - Regimen: Daily Repeat
Format: toxicity, organism-based, Sprague-Dawley
Set-up: regimen Daily Repeat, gender Male, age 6-8 weeks
Conditions: in vivo, po, 1500 mg/kg, 72 h, tissue Blood, route oral GAVAGE, dose level High, time 3 day, vehicle .5 % CMC
Entries and their MEAN CORPUSCULAR VOLUME
State the answer as a number, implicitly in fL.

Nc1nc2c(c(=O)[nH]1)N(C=O)C(CNc1ccc(C(=O)N[C@@H](CCC(=O)O)C(=O)O)cc1)CN2 (stereo not given in full) [LEUCOVORIN]	66.33
C[C@@H](O)[C@H]1C(=O)N2C(C(=O)O)=C(S[C@@H]3CN[C@H](C(=O)N(C)C)C3)[C@H](C)[C@H]12 [MEROPENEM]	62.23

What value of measured MEAN CORPUSCULAR VOLUME is listed for O=c1cc(-c2ccccc2)oc2ccc3ccccc3c12 [BETA-NAPHTHOFLAVONE] ?
62.13

Request the reported MEAN CORPUSCULAR VOLUME associated with CC(C)(Sc1cc(C(C)(C)C)c(O)c(C(C)(C)C)c1)Sc1cc(C(C)(C)C)c(O)c(C(C)(C)C)c1 [PROBUCOL]
63.33

State the recorded MEAN CORPUSCULAR VOLUME for this entry: `CCOC(=O)[C@H](CCc1ccccc1)N[C@@H](C)C(=O)N1CCC[C@H]1C(=O)O`
62.93

###

// reported LEUKOCYTE COUNT per item
Species: Rattus norvegicus
Assay: DrugMatrix - Regimen: Daily Repeat
Type: toxicity, organism-based, Sprague-Dawley
Parameters: regimen Daily Repeat, gender Male, age 6-8 weeks
Settings: in vivo, po, 100 mg/kg, 72 h, tissue Blood, route oral GAVAGE, dose level Low, time 3 day, vehicle .5 % CMC
Respond with the bare value in x10E3/uL.

Nc1nc2c(c(=O)[nH]1)N(C=O)C(CNc1ccc(C(=O)N[C@@H](CCC(=O)O)C(=O)O)cc1)CN2 (some centres undefined) [LEUCOVORIN]	16.47

Looking for the measured LEUKOCYTE COUNT of CC=Cc1ccc(O)c(OC)c1 [ISOEUGENOL] , can you help?
17.63

Name the recorded LEUKOCYTE COUNT for C#C[C@]1(O)CC[C@H]2[C@@H]3CCC4=Cc5oncc5C[C@]4(C)[C@H]3CC[C@@]21C [DANAZOL] .
12.7

Fill blank: measured LEUKOCYTE COUNT of the compound `CC[C@]1(O)CC[C@H]2[C@@H]3CCC4=CCCC[C@@H]4[C@H]3CC[C@@]21C` is ____.
12.51
